Assay System: TFRC; also: test concentration or dose not given here
Particulars: ASO
These antisense oligonucleotides have a phosphorothioate backbone; sugars and methylation of C are not fully specified.
Recorded Endpoint: remaining target (mRNA or protein) (fraction of control)

[
  {
    "Residue String": "CGCTTTCCCGCTCCCCGT",
    "Value Comparator": "≥",
    "Numeric Result": 1
  },
  {
    "Residue String": "TATCTGAGAACATCTGGG",
    "Value Comparator": "≥",
    "Numeric Result": 1
  },
  {
    "Residue String": "TTCTTTCAGGAATGAGGA",
    "Value Comparator": "=",
    "Numeric Result": 0.96
  },
  {
    "Residue String": "TTCTCCACCAAACAAGTT",
    "Value Comparator": "≥",
    "Numeric Result": 1
  },
  {
    "Residue String": "AATTATGGGAAACACTGT",
    "Value Comparator": "≥",
    "Numeric Result": 1
  },
  {
    "Residue String": "TTTAGCATCAAATGAAGT",
    "Value Comparator": "≥",
    "Numeric Result": 1
  },
  {
    "Residue String": "CATTCTGAACTGCCACAC",
    "Value Comparator": "=",
    "Numeric Result": 0.62
  },
  {
    "Residue String": "CAGCAAGTTTCATCTCCA",
    "Value Comparator": "=",
    "Numeric Result": 0.83
  },
  {
    "Residue String": "AACTGGTTCTCTTTCAAT",
    "Value Comparator": "=",
    "Numeric Result": 0.95
  },
  {
    "Residue String": "AAACAAGTCTACCGTTCT",
    "Value Comparator": "≥",
    "Numeric Result": 1
  },
  {
    "Residue String": "GGGTTTTATTAGCAGATG",
    "Value Comparator": "≥",
    "Numeric Result": 1
  },
  {
    "Residue String": "CCGCCACAGCCCCTTCCC",
    "Value Comparator": "=",
    "Numeric Result": 0.95
  },
  {
    "Residue String": "TATGATGGTTCACTCACG",
    "Value Comparator": "≥",
    "Numeric Result": 1
  },
  {
    "Residue String": "TCAACCTGGTATCTCCTA",
    "Value Comparator": "=",
    "Numeric Result": 0.65
  },
  {
    "Residue String": "ATAGCAGATACTTCCACT",
    "Value Comparator": "=",
    "Numeric Result": 0.96
  },
  {
    "Residue String": "GTGACACATTCAAGTGAG",
    "Value Comparator": "≥",
    "Numeric Result": 1
  },
  {
    "Residue String": "CTCCGACAACTTTCTCTT",
    "Value Comparator": "≥",
    "Numeric Result": 1
  },
  {
    "Residue String": "TTTGGCTGACGGCTGTTT",
    "Value Comparator": "=",
    "Numeric Result": 0.39
  },
  {
    "Residue String": "CACTTTGTTCAACTCAGG",
    "Value Comparator": "≥",
    "Numeric Result": 1
  },
  {
    "Residue String": "CAACCCTAACTGTAGAAA",
    "Value Comparator": "≥",
    "Numeric Result": 1
  },
  {
    "Residue String": "TTGGCTTCTGGTCCCCTC",
    "Value Comparator": "=",
    "Numeric Result": 0.38
  },
  {
    "Residue String": "TTAACAACAACAGGAAAG",
    "Value Comparator": "≥",
    "Numeric Result": 1
  },
  {
    "Residue String": "GGAAAGGGAAAGCAGCAT",
    "Value Comparator": "=",
    "Numeric Result": 0.95
  },
  {
    "Residue String": "TACCCAAATAAGGATAAT",
    "Value Comparator": "≥",
    "Numeric Result": 1
  },
  {
    "Residue String": "CCACGAGCAGAATACAGC",
    "Value Comparator": "≥",
    "Numeric Result": 1
  },
  {
    "Residue String": "CATGTCCAAAGAATGAAA",
    "Value Comparator": "=",
    "Numeric Result": 0.95
  },
  {
    "Residue String": "TCAAGTTCTCCAGTAAAG",
    "Value Comparator": "≥",
    "Numeric Result": 1
  },
  {
    "Residue String": "TCCAGGTGTGTAAGGGTC",
    "Value Comparator": "≥",
    "Numeric Result": 1
  },
  {
    "Residue String": "TACACCTTGGATAAACTG",
    "Value Comparator": "=",
    "Numeric Result": 0.93
  },
  {
    "Residue String": "TCATTTTATCCAGCAGAA",
    "Value Comparator": "=",
    "Numeric Result": 0.79
  },
  {
    "Residue String": "CCCTGCTCTGACAATCAC",
    "Value Comparator": "=",
    "Numeric Result": 0.9
  },
  {
    "Residue String": "ATTAAGTAGAGGACCTGG",
    "Value Comparator": "=",
    "Numeric Result": 0.66
  },
  {
    "Residue String": "AGACCAGCCCTTAGGATT",
    "Value Comparator": "=",
    "Numeric Result": 0.56
  },
  {
    "Residue String": "AGGAAACCTGCTACATTC",
    "Value Comparator": "≥",
    "Numeric Result": 1
  },
  {
    "Residue String": "TTTAACATCAGGTTTTGT",
    "Value Comparator": "≥",
    "Numeric Result": 1
  },
  {
    "Residue String": "TTACCCACCCAATGCTTA",
    "Value Comparator": "=",
    "Numeric Result": 0.89
  },
  {
    "Residue String": "GGTTTCTGAACAGCGTTT",
    "Value Comparator": "≥",
    "Numeric Result": 1
  },
  {
    "Residue String": "TTTAAGTCAAAAGGTCAA",
    "Value Comparator": "≥",
    "Numeric Result": 1
  },
  {
    "Residue String": "CGGTTCCTGCCAGTCTCT",
    "Value Comparator": "=",
    "Numeric Result": 0.54
  },
  {
    "Residue String": "CAAAGTAAGCGAACCACT",
    "Value Comparator": "≥",
    "Numeric Result": 1
  },
  {
    "Residue String": "TATTGTCAGCATTTTCTT",
    "Value Comparator": "≥",
    "Numeric Result": 1
  },
  {
    "Residue String": "AAGCTGCTGCCTAAAGAC",
    "Value Comparator": "≥",
    "Numeric Result": 1
  },
  {
    "Residue String": "CACCCGAACCAGGAATCT",
    "Value Comparator": "≥",
    "Numeric Result": 1
  },
  {
    "Residue String": "GAACTAAATGGAGGCTTA",
    "Value Comparator": "≥",
    "Numeric Result": 1
  },
  {
    "Residue String": "TAGAGTCTGTTTTCCAGT",
    "Value Comparator": "≥",
    "Numeric Result": 1
  },
  {
    "Residue String": "CTACCCCTTTACAATAGC",
    "Value Comparator": "=",
    "Numeric Result": 0.96
  },
  {
    "Residue String": "TTACAACCTTCAGCAGAG",
    "Value Comparator": "≥",
    "Numeric Result": 1
  },
  {
    "Residue String": "TGGTGCTGGTGAAGTCTG",
    "Value Comparator": "≥",
    "Numeric Result": 1
  },
  {
    "Residue String": "TTAATAACTCCAAAGATG",
    "Value Comparator": "≥",
    "Numeric Result": 1
  },
  {
    "Residue String": "CGGATGCTTCACATTTTG",
    "Value Comparator": "≥",
    "Numeric Result": 1
  },
  {
    "Residue String": "TATACCTTTACCTCCAAA",
    "Value Comparator": "=",
    "Numeric Result": 0.99
  },
  {
    "Residue String": "GTTATCGCCATCTACTTG",
    "Value Comparator": "≥",
    "Numeric Result": 1
  },
  {
    "Residue String": "ATTCTTATCTGGTCAGTG",
    "Value Comparator": "≥",
    "Numeric Result": 1
  },
  {
    "Residue String": "AAACCTTGAAGTTGCTGG",
    "Value Comparator": "=",
    "Numeric Result": 0.93
  },
  {
    "Residue String": "AGCTATGGGTATCACATT",
    "Value Comparator": "≥",
    "Numeric Result": 1
  },
  {
    "Residue String": "ATTCTTGCTTTCTGAGGT",
    "Value Comparator": "≥",
    "Numeric Result": 1
  },
  {
    "Residue String": "TGGGCAAGTTTCAATAGG",
    "Value Comparator": "≥",
    "Numeric Result": 1
  },
  {
    "Residue String": "GTCTGTTTTCTCAGCATT",
    "Value Comparator": "≥",
    "Numeric Result": 1
  },
  {
    "Residue String": "CCAATCATAAATCCAATC",
    "Value Comparator": "≥",
    "Numeric Result": 1
  },
  {
    "Residue String": "TTGGTTTTGTGACATTGG",
    "Value Comparator": "=",
    "Numeric Result": 0.92
  },
  {
    "Residue String": "GGAAACTGAGTGTGATTG",
    "Value Comparator": "≥",
    "Numeric Result": 1
  },
  {
    "Residue String": "CCTCCGTCCCGAGCCGCC",
    "Value Comparator": "=",
    "Numeric Result": 0.43
  },
  {
    "Residue String": "CTCATTGGCAAGAAAACA",
    "Value Comparator": "=",
    "Numeric Result": 0.94
  },
  {
    "Residue String": "CACGAGGGTCGGTGTAGT",
    "Value Comparator": "≥",
    "Numeric Result": 1
  },
  {
    "Residue String": "ATATTGAGCCTGTTAGCA",
    "Value Comparator": "=",
    "Numeric Result": 0.95
  },
  {
    "Residue String": "ACGCCAGACTTTGCTGAG",
    "Value Comparator": "=",
    "Numeric Result": 0.38
  },
  {
    "Residue String": "TCAACATACAACGCAAGA",
    "Value Comparator": "=",
    "Numeric Result": 0.65
  }
]

The values you see were collected from the OligoGym collection.
